The measured values listed here are drawn from PubChem BioAssay (NCI).

- Test system: A498 renal
- experimental-protocol: NCI tumour cell line growth inhibition, 48 h
measured-quantity: GI50

Below, 4 molecules whose answers are already recorded.
| molecule | measured-quantity | value-observed |
| --- | --- | --- |
| CCN1CCN(C(=O)[C@]23CCC(C)(C)C[C@@H]2C2=CC[C@@H]4[C@@]5(C)C/C(=C/c6ccncc6)C(=O)C(C)(C)[C@@H]5CC[C@@]4(C)[C@]2(C)CC3)CC1 | GI50 | 1.7 µM |
| N#CC1c2ccccc2C=CN1C(=O)N(c1ccccc1)c1ccccc1 (stereo not given) | GI50 | 7.14 µM |
| CC[n+]1c(/C=C/C=C2\N(C)c3ccccc3C2(C)C)sc2ccccc21 | GI50 | 5.04 µM |
| COC(=O)c1ccc(NC(=O)Oc2ccc(N(CCCl)CCCl)cc2)cc1 | GI50 | 3.35 µM |

Could you now consider this next molecule?
Task item: # query: GI50 of entry `CC(=O)[O][Hg][c]1c(C)c(C)cc(C)c1C`
Reply: 2.09 µM

====

- Test system: CAKI-1 renal
- experimental-protocol: NCI tumour cell line growth inhibition, 48 h
// values below are reported TGI

Below, 3 molecules whose answers are already recorded.
| molecule | TGI |
| --- | --- |
| NNC(=O)c1cc(=O)[nH][nH]1 | > 100 µM |
| O=C1Nc2ccccc2Nc2ccncc21 | > 100 µM |
| O=P(O)(O)C1(P(=O)(O)O)CC1 | > 100 µM |

Task item: Give TGI (CAKI-1 renal) of the following molecule: `O=C(OCC(Cl)(Cl)Cl)O[C@@H]1CCCC1(c1ccccc1)c1ccccc1`
Reply: > 100 µM

Task item: Give TGI (CAKI-1 renal) of the following molecule: `CC1=C(C(=O)Nc2cc(F)c(F)cc2F)C(c2ccc([N+](=O)[O-])cc2)C(C(=O)Nc2cc(F)c(F)cc2F)=C(C)N1`
Reply: > 100 µM

Task item: Give TGI (CAKI-1 renal) of the following molecule: `COc1ccc2c(OCc3nnc4ccc(-c5ccccc5)nn34)ccnc2c1`
Reply: > 100 µM

Task item: Give TGI (CAKI-1 renal) of the following molecule: `Brc1ccc2ns[s+]c2c1`
Reply: > 100 µM

Task item: Give TGI (CAKI-1 renal) of the following molecule: `CN1CCN(CCCOc2cccc3nc(Nc4ccc(Cl)c(C(F)(F)F)c4)ccc23)CC1`
Reply: 3.19 µM

Task item: Give TGI (CAKI-1 renal) of the following molecule: Cc1ccc(S(=O)(=O)NC(CN)C(=O)O)cc1 (stereo unspecified)
Reply: > 100 µM

Task item: Give TGI (CAKI-1 renal) of the following molecule: `Cc1ccccc1NC(=O)Cc1csc2[n+]1C(=O)/C(=C/c1ccc([N+](=O)[O-])cc1)S2`
Reply: 61.8 µM

Task item: Give TGI (CAKI-1 renal) of the following molecule: CC1CC(=O)N(N(C)C)C(C#N)(C#N)C1(C#N)C#N (stereo unspecified)
Reply: 5.23 µM

====

- Tested on: OVCAR-5 ovarian
- experimental-protocol: NCI tumour cell line growth inhibition, 48 h
Entry flag: condition met if TGI reaches 20 µM; condition not met if it does not.

| chemical-string | assigned-label |
| --- | --- |
| CCN1CCN(C(=O)[C@]23CCC(C)(C)C[C@@H]2C2=CC[C@@H]4[C@@]5(C)C/C(=C/c6ccncc6)C(=O)C(C)(C)[C@@H]5CC[C@@]4(C)[C@]2(C)CC3)CC1 | condition not met |
| Cc1cc(Cl)nc(N(CCCNc2ccnc3cc(Cl)ccc23)Cc2ccco2)n1 | condition met |
| COc1cc2nc3cc([N+](=O)[O-])ccc3c(NCCNCC(C)(C)O)c2cc1OC | condition not met |
| Nc1c(Cl)ncnc1NCCCNc1ncnc(Cl)c1N | condition met |

Task item: Please indicate if the recorded TGI for `C[C@H](C/C=C/C(C)(C)O)[C@H]1CC[C@@]2(C)[C@@H]3CC[C@H]4C(C)(C)[C@@H](O)CC[C@@]45C[C@@]35CC[C@]12C` meets or exceeds 20 µM.
Reply: condition met

Task item: Please indicate if the recorded TGI for `COc1ccccc1C[C@@H]1OC2(C=CC(=O)C=C2)O[C@H]1Cc1ccccc1OC` meets or exceeds 20 µM.
Reply: condition not met

Task item: Please indicate if the recorded TGI for `CN(CCCNC(=O)CCOCCOCCOCCNC(=O)Cc1ccc2ccc3cccc4ccc1c2c34)CCCNc1cc(-c2ccc3ccccc3c2)nc2ccccc12` meets or exceeds 20 µM.
Reply: condition not met

====

- System: HT29 colon
- experimental-protocol: NCI tumour cell line growth inhibition, 48 h; in the data active = GI50 below about 0.43 µM; inactive = the rest
Permitted responses: active, inactive

Check out these entries, answers already filled in.
| compound | assigned-label |
| --- | --- |
| Cn1cc(C2=C(c3cn(CCCCCSC(=N)N)c4ccccc34)C(=O)NC2=O)c2ccccc21 | inactive |
| CCOC(=O)c1cnc2c(C)cccc2c1Nc1ccc(C(C)=O)cc1 | inactive |
| COc1cc(-c2nn(-c3cccc(NC(=O)c4ccc(Cl)c(C(F)(F)F)c4)c3)cc2-c2ccncc2)ccc1Cl | inactive |

Okay, now this compound:
Task item: Query: recorded result category for `COc1cccc(/C=C2\COc3ccc(-c4ccccc4)cc3C2=O)c1` in this test
Reply: inactive

====

- Test system: SK-OV-3 ovarian
- experimental-protocol: NCI tumour cell line growth inhibition, 48 h
measured-quantity: TGI

Below, 3 compounds whose answers are already recorded.
| compound | TGI |
| --- | --- |
| CN1C(=O)C2(c3ccccc31)N(c1ccc(Cl)cc1)C(=O)C2(c1ccccc1)c1ccccc1 (stereo unspecified) | > 100 µM |
| C[C@]12CCC3[C@@H](CC[C@@H]4c5nonc5CC[C@]34C)C1CC[C@@H]2O (stereo partly specified) | 84.9 µM |
| Cc1cc(Cl)nc(N(CCCNc2ccnc3cc(Cl)ccc23)Cc2ccco2)n1 | 8.22 µM |

Task item: Give TGI (SK-OV-3 ovarian) of the following compound: `CCn1c(SCC(=O)NNC(=S)NC)nc2ccccc2c1=O`
Reply: > 100 µM

Task item: Give TGI (SK-OV-3 ovarian) of the following compound: `O=C(CCc1ccccc1)On1c(-c2ccccc2)nc2ccccc2c1=S`
Reply: > 100 µM

Task item: Give TGI (SK-OV-3 ovarian) of the following compound: C[N+]1(CCN[N+]2(C)CCCCC2)CCc2ccccc2C1 (stereo unspecified)
Reply: > 100 µM

Task item: Give TGI (SK-OV-3 ovarian) of the following compound: `CCOC(=O)Oc1ccc2c(c1)c(=O)c1c(NCCN(CC)CC)ccc3nnn2c31`
Reply: 22.6 µM

Task item: Give TGI (SK-OV-3 ovarian) of the following compound: O=[N+]([O-])c1cccc(C2CC(c3ccccc3)=Nc3ccccc3S2)c1 (stereo unspecified)
Reply: > 100 µM

====

- System: UACC-257 melanoma
- experimental-protocol: NCI tumour cell line growth inhibition, 48 h
measured-quantity: TGI (µM)
Report only the number, with the unit µM understood.

Below, 3 compounds whose answers are already recorded.
| chemical-string | TGI (µM) |
| --- | --- |
| C[C@H]1S[C@H](c2c(Cl)cccc2Cl)N2Cc3ccccc3N=C12 | 45.6 |
| COc1cc(-c2ccccc2N)c2cccnc2c1OC | 24.8 |
| N#C[C@H](c1nc2ccccc2s1)c1nc2ccccc2nc1Cl | 43.3 |

Task item: Give TGI (UACC-257 melanoma) of the following compound: `CCN1CCN(C(=O)[C@]23CCC(C)(C)C[C@@H]2C2=CC[C@@H]4[C@@]5(C)C/C(=C/c6ccncc6)C(=O)C(C)(C)[C@@H]5CC[C@@]4(C)[C@]2(C)CC3)CC1`
Reply: 3.28

====

// values below are reported GI50
- System: NCI-H226 lung
- experimental-protocol: NCI tumour cell line growth inhibition, 48 h

Below, 2 compounds whose answers are already recorded.
| compound | value-observed |
| --- | --- |
| CC[n+]1c(/C=C/C=C2\N(C)c3ccccc3C2(C)C)sc2ccccc21 | 4.55 µM |
| CC(=O)[O][Hg][c]1c(C)c(C)cc(C)c1C | 2.05 µM |

Task item: # query: GI50 of entry `Cn1c(-c2c(N)n(CCCN3CCOCC3)c3nc(C#N)c(C#N)nc23)nc2ccccc21`
Reply: 27.8 µM

Task item: # query: GI50 of entry `COC(=O)[C@H]1CCCN1C(=O)[C@H]1CCCN1C(=O)[C@H](Cc1c[nH]c2ccccc12)NC(=S)Nc1cc(C(F)(F)F)cc(C(F)(F)F)c1`
Reply: 9.63 µM

Task item: # query: GI50 of entry `CCC(=O)c1c(C(F)(F)F)n([O-])c2cc(F)c(F)cc2[n+]1=O`
Reply: 0.502 µM

Task item: # query: GI50 of entry `O=C1/C=C/[C@@H](O)[C@@H]2C[C@@H](O)C[C@H]2/C=C/CCC[C@H](C(F)(F)F)O1`
Reply: 0.0687 µM

Task item: # query: GI50 of entry `CCCCCCC[CH2][Sn]1([CH2]CCCCCCC)[O]C(=O)c2cccnc2[O]1`
Reply: > 100 µM

Task item: # query: GI50 of entry NC(=S)c1c(N)n(C2OC(CO)C(O)C2O)c2ncnc(N)c12 (configuration not stated)
Reply: 0.695 µM
